Consider the following binders and their measured Kd readings.
system: Q98A
protocolNotes: SPR; 25C
Use nM as the unit, but write only the number.

# binder, Kd / nM
measured = [
    ("Activin A (ligand) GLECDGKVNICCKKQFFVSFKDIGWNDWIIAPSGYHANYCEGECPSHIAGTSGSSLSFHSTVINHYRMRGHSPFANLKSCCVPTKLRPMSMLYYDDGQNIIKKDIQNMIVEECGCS", 0.155),
    ("GDF11 (ligand) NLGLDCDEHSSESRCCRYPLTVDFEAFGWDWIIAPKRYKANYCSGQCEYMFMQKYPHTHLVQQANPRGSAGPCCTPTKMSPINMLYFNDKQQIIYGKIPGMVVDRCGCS", 0.037),
    ("BMP9 (ligand) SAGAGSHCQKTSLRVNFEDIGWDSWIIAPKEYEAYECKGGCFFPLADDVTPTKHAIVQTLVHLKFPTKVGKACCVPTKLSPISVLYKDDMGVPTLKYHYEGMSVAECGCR", 0.043),
]

Please turn your attention to the following entry.
Query: // lookup Kd for BMP10 (ligand) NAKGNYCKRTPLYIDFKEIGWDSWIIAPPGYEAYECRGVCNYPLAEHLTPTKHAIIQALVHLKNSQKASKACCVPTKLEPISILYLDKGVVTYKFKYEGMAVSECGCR
Result: 0.21
